This collection of values is drawn from ChEMBL document CHEMBL1130459.

Log Ki for assorted compounds
species on record: Mus musculus; experiment: Compound was evaluated for its binding affinity at the anticonvulsant binding site by displacement of [3H]- SB 204269 from mouse forebrain membranes; parameters: species or system Brain, Membrane
Returns: the value as a bare number; no unit string appended.

{"smiles-text": "CC(=O)c1ccc2c(c1)[C@H](NC(=O)c1ccc(F)c(Cl)c1)[C@@H](O)C(C)(C)O2", "Log Ki": -7.91}
{"smiles-text": "CC(=O)c1ccc2c(c1)[C@H](NC(=O)c1ccc(F)cc1)[C@@H](O)C(C)(C)O2", "Log Ki": -7.32}
{"smiles-text": "CC(=O)c1ccc2c(c1C)[C@H](NC(=O)c1ccc(F)cc1)[C@@H](O)C(C)(C)O2", "Log Ki": -5.02}
{"smiles-text": "CC(=O)c1cc2c(cc1C)OC(C)(C)[C@H](O)[C@H]2NC(=O)c1ccc(F)cc1", "Log Ki": -6.15}

API: the following record is the query input.
### Prompt Provide measured Log Ki value, entry: CC1(C)Oc2cc3c(cc2[C@H](NC(=O)c2ccc(F)c(Cl)c2)[C@H]1O)C(=O)CCC3
### Response -7.6
